B1: H2-Kb / E4 (parent)
chain 1: AQSVTQPDARVTVSEGASLQLRCKYSYSGTPYLFWYVQYPRQGLQLLLKYYSGDPVVQGVNGFEAEFIKSNSSFHLRKASVHWSDSAVYFCAVSAGQGGSAKLIFGEGTKLTVSS
chain 2: GGIITQTPKFLIGQEGQKLTLKCQQNFNHDTMYWYRQDSGKGLRLIYYSITENDLQKGDLSEGYDASREKKSSFSLTVTSAQKNEMAVFLCASSIWGDSYEQYFGPGTRLTVL
chain 3: not shown
chain 4: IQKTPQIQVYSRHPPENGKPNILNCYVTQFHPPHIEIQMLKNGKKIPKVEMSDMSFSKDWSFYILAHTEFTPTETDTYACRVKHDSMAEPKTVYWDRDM
chain 5: SIINFEKL

# Variants of: B1
# Experiment description: % of reporter cells activated (NFAT-GFP), raw; also: test concentration or dose not given here
# Conditions used: with E4
Known ratio to parent of a selection of variants

Look over these answered cases.
Variant notation | ratio to parent
chain 5 E6C | 0.651
chain 5 S1V | 0.889
chain 5 L8D | 0.444

# get_value(readout='ratio to parent', item= chain 5 F5I )
0.746

# get_value(readout='ratio to parent', item= chain 5 I3Y )
0.508

# get_value(readout='ratio to parent', item= chain 5 F5R )
0.508

# get_value(readout='ratio to parent', item= chain 5 L8R )
1.29

# get_value(readout='ratio to parent', item= chain 5 E6M )
0.54

# get_value(readout='ratio to parent', item= chain 5 L8A )
0.286

# get_value(readout='ratio to parent', item= chain 5 L8P )
0.762

# get_value(readout='ratio to parent', item= chain 5 I2H )
1.06

# get_value(readout='ratio to parent', item= chain 5 I2F )
0.746

# get_value(readout='ratio to parent', item= chain 5 F5V )
0.206

# get_value(readout='ratio to parent', item= chain 5 F5Y )
0.492

# get_value(readout='ratio to parent', item= chain 5 K7F )
0.49

# get_value(readout='ratio to parent', item= chain 5 E6I )
0.873

# get_value(readout='ratio to parent', item= chain 5 I2Q )
0.937

# get_value(readout='ratio to parent', item= chain 5 E6W )
0.635

# get_value(readout='ratio to parent', item= chain 5 E6H )
1.21

Cited source for all entries: paper PMC11480844
